- TEST_SYSTEM: UniProtKB Q8N884
- Sequence (Q8N884 whole entry): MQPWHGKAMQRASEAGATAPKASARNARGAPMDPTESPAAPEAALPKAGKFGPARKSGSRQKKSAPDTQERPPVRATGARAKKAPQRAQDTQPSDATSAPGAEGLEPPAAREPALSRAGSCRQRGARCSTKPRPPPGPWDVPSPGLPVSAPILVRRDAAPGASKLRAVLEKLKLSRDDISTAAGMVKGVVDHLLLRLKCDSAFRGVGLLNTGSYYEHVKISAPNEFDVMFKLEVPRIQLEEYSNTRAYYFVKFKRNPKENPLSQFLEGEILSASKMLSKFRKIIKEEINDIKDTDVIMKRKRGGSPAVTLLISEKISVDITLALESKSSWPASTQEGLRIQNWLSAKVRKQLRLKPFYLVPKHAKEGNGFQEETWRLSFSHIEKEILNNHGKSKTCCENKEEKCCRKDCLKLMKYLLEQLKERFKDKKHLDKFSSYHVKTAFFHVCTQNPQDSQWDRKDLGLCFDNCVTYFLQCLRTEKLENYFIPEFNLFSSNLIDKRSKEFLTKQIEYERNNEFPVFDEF
- PROCEDURE_DETAILS: Inhibition of cGAS in dsDNA stimulated human THP-1 cells assessed as inhibition of IFNB1 mRNA level by qRT-PCR analysis
OUTCOME_MEASURE: pIC50
Just the number, please; pIC50 means minus log10 of the concentration in mol/L.

Req: // pIC50 lookup, key: Cn1ccc(-c2cc(Cl)c(Cl)c3[nH]c4c(c23)CN(C(=O)CO)CC4)n1
Resp: 5.77

====

- TEST_SYSTEM: Cyclic GMP-AMP synthase (Mus musculus)
- Sequence (Q8C6L5 whole entry): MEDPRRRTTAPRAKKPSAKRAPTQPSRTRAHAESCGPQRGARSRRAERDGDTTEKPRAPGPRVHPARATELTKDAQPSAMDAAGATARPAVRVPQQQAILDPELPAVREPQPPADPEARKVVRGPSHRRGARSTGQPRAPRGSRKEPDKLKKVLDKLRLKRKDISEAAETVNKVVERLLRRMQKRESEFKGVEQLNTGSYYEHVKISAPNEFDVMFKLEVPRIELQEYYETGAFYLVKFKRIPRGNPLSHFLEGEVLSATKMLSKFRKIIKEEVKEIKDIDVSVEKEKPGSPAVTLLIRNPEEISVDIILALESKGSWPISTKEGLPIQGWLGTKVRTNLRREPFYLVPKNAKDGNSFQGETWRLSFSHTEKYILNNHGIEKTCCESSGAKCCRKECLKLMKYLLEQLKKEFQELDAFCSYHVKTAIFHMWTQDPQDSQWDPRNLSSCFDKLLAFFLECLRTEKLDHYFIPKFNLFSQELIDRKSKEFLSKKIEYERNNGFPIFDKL
- PROCEDURE_DETAILS: Inhibition of cGAS in dsDNA activated mouse RAW-Lucia ISG cells preincubated for 1 hr followed by cGAMP addition and measured after 24 hrs by luminescence based QUANTI-Luc assay
OUTCOME_MEASURE: IC50
Dear colleague, please send the value followed by its unit.

Consider the worked cases shown below.
- O=C(CO)N1CCC2(CCc3[nH]c4c(Cl)c(Cl)cc(-c5cnn(C(F)F)c5)c4c3C2)C1 (stereo not given): 8.69 µM
- O=C(CO)N1CCC2(CCc3[nH]c4c(Cl)c(Cl)cc(-c5ccnc(C(F)(F)F)c5)c4c3C2)C1 (stereo not given): 11.4 µM
- Cn1ccc(-c2cc(Cl)c(Cl)c3[nH]c4c(c23)CC2(CC4)CCN(C(=O)CO)C2)n1 (stereo not given): 8.91 µM
- Nc1cc(-c2cc(Cl)c(Cl)c3[nH]c4c(c23)CC2(CC4)CCN(C(=O)CO)C2)ccn1 (stereo not given): 4.71 µM

Next up:
Req: Identify the measured IC50 of Cn1ccc(-c2cc(Cl)c(Cl)c3[nH]c4c(c23)CN(C(=O)CO)CC4)n1 for Cyclic GMP-AMP synthase (Mus musculus).
Resp: 14.6 µM
